biological target: CDK7/Cyclin H/MAT-1 complex (Homo sapiens, UniProt P50613); construct: Human CDK7 (amino acids 1-346); His6 (N); TEV protease cleavage site (N); made in house; host or cells: baculovirus-SF9 insect cells; assay: Absorbance kinetic assay (20 nM CDK7/Cyclin H/MAT-1 complex); format: biochemical; conditions: read-out: CDK7 (20 nM) pIC50 (converted)
Sequence (P50613 whole entry, the tested form may be a part): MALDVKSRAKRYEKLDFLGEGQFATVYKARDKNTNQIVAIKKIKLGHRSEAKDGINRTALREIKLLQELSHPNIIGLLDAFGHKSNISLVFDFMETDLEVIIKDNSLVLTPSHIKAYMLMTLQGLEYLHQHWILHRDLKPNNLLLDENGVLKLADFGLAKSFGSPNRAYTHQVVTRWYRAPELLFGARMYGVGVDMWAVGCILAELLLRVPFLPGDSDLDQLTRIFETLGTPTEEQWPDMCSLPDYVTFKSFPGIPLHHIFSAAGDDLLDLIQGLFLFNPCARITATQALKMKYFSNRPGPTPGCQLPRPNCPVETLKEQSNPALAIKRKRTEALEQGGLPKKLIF
Sequence (P51946 whole entry partner, the tested form may be a part): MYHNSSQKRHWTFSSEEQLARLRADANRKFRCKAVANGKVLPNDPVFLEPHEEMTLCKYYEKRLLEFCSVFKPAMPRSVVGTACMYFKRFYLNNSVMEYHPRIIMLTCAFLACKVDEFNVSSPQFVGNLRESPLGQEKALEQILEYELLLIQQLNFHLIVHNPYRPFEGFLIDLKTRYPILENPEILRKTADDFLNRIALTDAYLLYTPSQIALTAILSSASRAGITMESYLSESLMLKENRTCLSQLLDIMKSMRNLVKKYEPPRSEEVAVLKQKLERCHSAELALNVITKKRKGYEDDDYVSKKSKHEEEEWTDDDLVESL
Sequence (P51948 whole entry partner, the tested form may be a part): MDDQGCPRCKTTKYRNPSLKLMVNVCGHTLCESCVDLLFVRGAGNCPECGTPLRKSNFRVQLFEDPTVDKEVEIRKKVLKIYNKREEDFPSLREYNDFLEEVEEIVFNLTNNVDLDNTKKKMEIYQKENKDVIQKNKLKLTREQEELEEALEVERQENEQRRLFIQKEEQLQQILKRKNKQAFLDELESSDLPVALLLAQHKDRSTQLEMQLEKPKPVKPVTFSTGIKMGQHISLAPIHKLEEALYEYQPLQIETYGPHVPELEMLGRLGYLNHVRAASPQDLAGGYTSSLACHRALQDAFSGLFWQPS
Task for the reader: assign each of the following compounds its reported IC50.
Respond numerically; units are nM and should not be typed.

# input Look up IC50: Cc1cccc([C@@H]2CN(C)CC[C@H]2C(=O)N2Cc3nc(NC4CCOCC4)ncc3C[C@H]2C)c1 (relative stereo)
# output 457

# input Look up IC50: C[C@@H]1Cc2cnc(NC3CCOCC3)nc2CN1C(=O)[C@H]1CN(C)C[C@@H]1c1ccccc1 (relative stereo) [Compound 169a]
# output 468

# input Look up IC50: Cc1cccc([C@@H]2CN(C)CC[C@H]2C(=O)N2Cc3nc(Nc4cnn(C)c4)ncc3[C@@H]3C[C@@H]32)c1 (relative stereo)
# output 2340

# input Look up IC50: C[C@H]1Cc2cnc(NC3CCOCC3)nc2CN1C(=O)N1CCN(C)C[C@H]1c1cccc(F)c1 (relative stereo)
# output 13.2

# input Look up IC50: C[C@@H]1Cc2cnc(NC3CCOCC3)nc2CN1C(=O)[C@H]1CCN(C)C[C@@H]1C1CC1 (racemic) [Compound 111]
# output 214

# input Look up IC50: C[C@H]1Cc2cnc(NC3CCOCC3)cc2CN1C(=O)[C@H]1CCN(C)C[C@@H]1c1ccccc1 (single isomer, unassigned) [Compound 171a]
# output 9.77

# input Look up IC50: C[C@@H]1Cc2cnc(NCc3ccn(C)n3)nc2CN1C(=O)[C@H]1CCN(C)C[C@@H]1c1cccc(C(F)(F)F)c1 (relative stereo)
# output 11.7

# input Look up IC50: C[C@@H]1Cc2cnc(NC3CCOCC3)nc2CN1C(=O)[C@H]1CCN(C)C[C@@H]1c1ccc(F)cc1 (relative stereo)
# output 12
